# Tested on: LEGO organoid PT (PTEN-/-; TP53-/-)
# testMethodNotes: bioluminescence (viable cell) signal fold change after vs before treatment, normalised to DMSO (ratio); higher = more tumour cell growth / less inhibition
# measurementParameters: 10 µM; treatment time 6 days
Could you please report measured bioluminescence for the items listed next?

Quick one: bioluminescence for Nc1ccn([C@@H]2O[C@H](CO)[C@@H](O)[C@@H]2O)c(=O)n1 [Cytarabine] ?
1.82

# bioluminescence lookup, item COc1cc2ncnc(Nc3ccc(F)c(Cl)c3)c2cc1OCCCN1CCOCC1 [Gefitinib]
1.78

Record request: bioluminescence value, item COc1cc2c(cc1OC)C(=O)C(CC1CCN(Cc3ccccc3)CC1)C2 (centres undefined) [Donepezil]
0.84

Which measured bioluminescence value corresponds to CCC(C)n1ncn(-c2ccc(N3CCN(c4ccc(OC[C@H]5CO[C@](Cn6cncn6)(c6ccc(Cl)cc6Cl)O5)cc4)CC3)cc2)c1=O (some centres undefined) [Itraconazole] ?
1.69

----------
# System: LEGO organoid PTN (PTEN-/-; TP53-/-; NF1-/-)
# testMethodNotes: bioluminescence (viable cell) signal fold change after vs before treatment, normalised to DMSO (ratio); higher = more tumour cell growth / less inhibition
# measurementParameters: 10 µM; treatment time 6 days
Lab note: anything with bioluminescence at or over 1 counts as condition met; the rest go in condition not met.

Confirm if bioluminescence reported for the compound NC(=O)OCC(COC(N)=O)c1ccccc1 [Felbamate] is 1 or above.
condition not met

Determine whether measured bioluminescence meets or exceeds 1 for Oc1c(I)cc(Cl)c2cccnc12 [Clioquinol]
condition met

In plain terms: is recorded bioluminescence at least 1 for NNC(=O)c1ccncc1 [Isoniazid] ?
condition met

Record Cc1cc2c(s1)Nc1ccccc1N=C2N1CCN(C)CC1 [Olanzapine] ; criterion: bioluminescence no lower than 1. Met?
condition met

Check if bioluminescence >= 1 (inclusive). Item: CN(C)CC(c1ccc(O)cc1)C1(O)CCCCC1.O=C(O)CCC(=O)O (centres undefined) [Desvenlafaxine succinate hydrate]
condition not met

Assess whether reported bioluminescence for CC1=C(/C=C/C(C)=C/C=C/C(C)=C/C(=O)O)C(C)(C)CCC1 [Tretinoin] sits at 1 or higher.
condition met

Assess whether reported bioluminescence for CCOC(=O)N1CC\C(CC1)=C1\c2ccc(Cl)cc2CCc2cccnc12 [Loratadine] sits at 1 or higher.
condition met

In plain terms: is recorded bioluminescence at least 1 for CCCC(CCC)C(=O)O [Valproic Acid] ?
condition not met

For this compound, is measured bioluminescence 1 or higher? CO[C@H]1C[C@@H]2CC[C@@H](C)[C@@](O)(O2)C(=O)C(=O)N2CCCC[C@H]2C(=O)O[C@H]([C@H](C)C[C@@H]2CC[C@@H](OC(=O)C(C)(CO)CO)[C@H](OC)C2)CC(=O)[C@H](C)/C=C(\C)[C@@H](O)[C@@H](OC)C(=O)[C@H](C)C[C@H](C)/C=C/C=C/C=C/1C [Temsirolimus]
condition not met

----------
# Test system: LEGO organoid PTCC (PTEN-/-; TP53-/-; CDKN2A-/-; CDKN2B-/-)
# testMethodNotes: bioluminescence (viable cell) signal fold change after vs before treatment, normalised to DMSO (ratio); higher = more tumour cell growth / less inhibition
# measurementParameters: 10 µM; treatment time 6 days
Assign Yes to entries whose bioluminescence meets or exceeds 0.9; assign No to the rest.

Identify whether the reported bioluminescence of the following compound is 0.9 or greater: CC(=O)c1c(C)c2cnc(Nc3ccc(N4CCNCC4)cn3)nc2n(C2CCCC2)c1=O.O=S(=O)(O)CCO [Palbociclib Isethionate]
Yes

In plain terms: is recorded bioluminescence at least 0.9 for O=C(O)c1cccnc1 [Niacin] ?
Yes

Given NCCS(=O)(=O)O [Taurine] , state whether its bioluminescence is at least 0.9.
No

Say whether Clc1ccc(COC(Cn2ccnc2)c2ccc(Cl)cc2Cl)c(Cl)c1.O=[N+]([O-])O (stereo unspecified) [Miconazole nitrate] shows bioluminescence of 0.9 or more.
No

Hello, I need to know if C[C@H](C(=O)O)c1cccc(C(=O)c2ccccc2)c1 [(S)-(+)-Ketoprofen] has measured bioluminescence not below 0.9. Thanks!
Yes

In plain terms: is recorded bioluminescence at least 0.9 for Nc1ncnc2c1ncn2[C@@H]1O[C@H](CO)[C@@H](O)[C@H]1OP(=O)(O)O [Adenosine-2'-monophosphate] ?
Yes

Please indicate if the recorded bioluminescence for COc1cc2c(cc1OC)C(=O)C(CC1CCN(Cc3ccccc3)CC1)C2.Cl (stereo unspecified) [Donepezil HCl] meets or exceeds 0.9.
No

Decide: bioluminescence of CN(C)CCCN1c2ccccc2CCc2ccccc21.Cl [Imipramine hydrochloride] >= 0.9?
No

Is it the case that CC1(C)O[C@@H]2[C@@H](CO[C@@]3(COS(N)(=O)=O)OC(C)(C)O[C@@H]23)O1 [Topiramate] has bioluminescence reaching or exceeding 0.9?
Yes

Say whether CNS(=O)(=O)CCc1ccc2[nH]cc(C3CCN(C)CC3)c2c1.Cl [Naratriptan hydrochloride] shows bioluminescence of 0.9 or more.
No

Is bioluminescence at least 0.9? Consider C[C@@H]1C[C@H]2[C@@H]3CCC4=CC(=O)C=C[C@]4(C)[C@@]3(F)[C@@H](O)C[C@]2(C)[C@@]1(O)C(=O)CO [Dexamethasone]
Yes

Answer whether bioluminescence of CC(C)Cc1ccc(C(C)C(=O)O)cc1 (stereo unspecified) [Ibuprofen] is greater than or equal to 0.9.
No

# check: bioluminescence of CCc1cc2c(cc1N1CCC(N3CCOCC3)CC1)C(C)(C)c1[nH]c3cc(C#N)ccc3c1C2=O.Cl [Alectinib hydrochloride] is greater than or equal to 0.9
No

Is bioluminescence for CNC(=O)c1cc(Oc2ccc(NC(=O)Nc3ccc(Cl)c(C(F)(F)F)c3)cc2)ccn1.Cc1ccc(S(=O)(=O)O)cc1 [Sorafenib tosylate] at or above 0.9?
No
